experiment: qHTS assay to identify small molecule antagonists of the progesterone receptor (PR) signaling pathway - cell viability counter screen (AID 1346798); settings: PR-UAS-bla HEK293T viability, CellTiter-Glo luminescence, 16 h; series mostly up to 92.4 µM; note: nearly all actives have a fitted effect of over 50% in size
Inconclusive results are not listed. Activity calls are given as the source filed them. Calls come from the whole dose curve; as a rule, active = well fitted cell-killing curve with a large enough effect in the repeat runs; inconclusive = weak or mixed curves, or effect the other way; inactive = no such curve, though single readings can be large or run the other way.
Labels: active, inactive

• CCN(CC)c1ccc(C=O)cc1 = inactive
• CCNc1nc(NC(C)(C)C)nc(OC)n1 = inactive
• Nc1ccc(N)c([N+](=O)[O-])c1 = inactive
• C1CCSC1 = inactive
• c1ccc(-c2ccc(C(c3ccccc3)n3ccnc3)cc2)cc1 (centres undefined) = active
• C/C(=N\[Si](C)(C)C)O[Si](C)(C)C = inactive
• N#CCCOCCC#N = inactive
• CC(C)=NNC(N)=S = active
• Cc1ccc2nc(-c3ccc(N)cc3)sc2c1S(=O)(=O)O = inactive

###

test: qHTS assay to identify small molecule antagonists of the sonic hedgehog signaling (Shh) pathway (AID 1259369); conditions: NIH/3T3 Gli1-Luc reporter, Shh antagonist, luminescence 24 h; series mostly up to 92.4 µM; note: nearly all actives have a fitted effect of over 45% in size
Records with an inconclusive call do not appear. Calls of active or inactive are those of the source. Calls come from the whole dose curve.
Labels: active, inactive

* ClC(c1ccccc1)(c1ccccc1)c1ccccc1 | inactive
* CCC(=O)OC/C=C(\C)CCC=C(C)C | inactive
* CCc1cccc(C)c1N(C(=O)C(=O)O)C(C)COC (stereo unspecified) | inactive
* CCOC(=O)[C@H](O)[C@@H](O)C(=O)OCC | inactive
* COc1cc(/C=C/C(=O)CC(=O)/C=C/c2ccc(O)c(OC)c2)ccc1O | active
* C1=CCCC1 | inactive
* CC(O)(c1ccc(Cl)cc1)c1ccc(Cl)cc1 | active
* CCCCCCCCCCCCCCCCC(C(=O)O)C(O)(CC(=O)O)C(=O)O (stereo unspecified) | inactive
* Cc1ccc2n[nH]nc2c1 | inactive
* O[Si](c1ccccc1)(c1ccccc1)c1ccccc1 | active
* Cn1c(=O)[nH]c2ncn(C)c2c1=O | inactive
* Cc1ccc2nc(-c3ccc(N)cc3)sc2c1S(=O)(=O)O | inactive
* Nc1ccc(Oc2cccc(Oc3ccc(N)cc3)c2)cc1 | active
* O=C(Cl)c1ccc(Cl)cc1Cl | inactive
* CCCCCCCCCCCC(=O)Cl | inactive
* [Cl][Eu]([Cl])[Cl] | active
* NCc1cccc(C2CCN(C(=O)c3ccc(C#Cc4ccccc4F)o3)CC2)c1 | active
* Nc1ccc(N)c([N+](=O)[O-])c1 | active
* CC(Cc1ccc(O)c(O)c1)C(C)Cc1ccc(O)c(O)c1 (stereo unspecified) | active
* C1CCSC1 | inactive
* CC(CC(C)(C)C)CC(C)(C)CC(C)(C)C (stereo unspecified) | inactive

###

assay: qHTS assay for identifying genotoxic compounds that show differential cytotoxicity against isogenic chicken DT40 cell lines with known DNA damage response pathways - wild type cell line (AID 743012); details: DT40 wild type chicken cells viability, CellTiter-Glo, 40 h; series mostly up to 68.4 µM; note: nearly all actives have a fitted effect of over 60% in size
Records with an inconclusive call do not appear. Calls of active or inactive are those of the source. Calls come from the whole dose curve; as a rule, active = well fitted cell-killing curve with a large enough effect in the repeat runs; inconclusive = weak or mixed curves, or effect the other way; inactive = no such curve, though single readings can be large or run the other way.
Labels: Yes = active, No = inactive

* Cc1onc(-c2c(F)cccc2Cl)c1C(=O)N[C@@H]1C(=O)N2[C@@H]1SC(C)(C)[C@@H]2C(=O)O | No
* CCCCC[C@H](O)/C=C/[C@@H]1[C@@H](C/C=C\CCCC(=O)O)[C@@H](O)C[C@H]1O | No
* O=C1c2ccccc2-c2n[nH]c3cccc1c23 | Yes
* NC(=O)[C@@H]1C[C@]2(NC(=O)NC2=O)c2cc(F)ccc2O1 | No
* COc1cccc2c1[C@@H]1CN(CCCCn3c(=O)[nH]c4c(sc5ncc(-c6ccccc6)nc54)c3=O)C[C@@H]1CO2 | Yes
* CCCOC(=O)c1ccc(O)cc1 | No
* S=C1NC=NC2N=CNC12 (stereo not given) | Yes
* C[C@H]1O[C@@H](O[C@H]2CC[C@@]3(C)[C@H](CC[C@@H]4[C@@H]3C[C@@H](O)[C@]3(C)[C@@H](C5=CC(=O)OC5)CC[C@]43O)C2)C[C@H](O)[C@@H]1O[C@H]1C[C@H](O)[C@H](O[C@H]2C[C@H](O)[C@H](O[C@@H]3O[C@H](CO)[C@@H](O)[C@H](O)[C@H]3O)[C@@H](C)O2)[C@@H](C)O1 | Yes
* CO/N=C(\C(=O)N[C@@H]1C(=O)N2C(C(=O)[O-])=C(C[n+]3ccc(N)n3CCO)CS[C@H]12)c1csc(N)n1 | No
* CC[C@@H](C(=O)[C@@H](C)[C@@H](O)[C@H](C)CCc1ccc(C)c(O)c1C(=O)O)[C@H]1O[C@](CC)([C@H]2CC[C@](O)(CC)[C@H](C)O2)C[C@@H]1C | Yes
